- tested.system: IRAK4 protein in normal human PBMCs (Homo sapiens, UniProt Q9NWZ3)
- Construct: host or cells: normal human PBMCs
- Sequence (Q9NWZ3 1-460): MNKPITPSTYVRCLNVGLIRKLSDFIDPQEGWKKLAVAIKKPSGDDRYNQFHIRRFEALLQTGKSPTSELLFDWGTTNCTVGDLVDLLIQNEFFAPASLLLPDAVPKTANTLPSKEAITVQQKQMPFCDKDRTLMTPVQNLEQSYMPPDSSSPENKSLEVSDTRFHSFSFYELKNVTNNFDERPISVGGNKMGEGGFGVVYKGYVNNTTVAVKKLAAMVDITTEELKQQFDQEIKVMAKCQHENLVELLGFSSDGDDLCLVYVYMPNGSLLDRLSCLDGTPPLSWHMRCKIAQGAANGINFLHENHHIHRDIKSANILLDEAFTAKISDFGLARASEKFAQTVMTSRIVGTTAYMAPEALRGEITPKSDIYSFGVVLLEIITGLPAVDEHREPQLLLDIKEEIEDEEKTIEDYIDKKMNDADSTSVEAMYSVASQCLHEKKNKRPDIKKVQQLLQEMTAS
- assay.summary: Degradation of IRAK4 protein in normal human PBMCs (AlphaLISA)
- Format: cell-based
- protocol.conditions: 24 h incubation
assay.endpoint: Dmax (%)
API: value field is a number in %; no unit string.

In: Name the recorded Dmax for "CN(CCC1CCN(C(=O)c2ccc(Cl)c(N3CCC(=O)NC3=O)c2)CC1)C[C@H]1CC[C@H](n2cc(NC(=O)c3cnn4ccc(N5CCOCC5)nc34)c(C(F)F)n2)CC1" .
Out: 98

In: Name the recorded Dmax for "COc1ccc(C(=O)N2CCC3(CCC(CCN4CCC(n5cc(NC(=O)c6cnn7ccc(N8CCOCC8)nc67)c(C(F)F)n5)CC4)CC3)CC2)cc1N1CCC(=O)NC1=O" .
Out: 98.4

In: Name the recorded Dmax for "CN(CCC1CCN(C(=O)c2ccc(Cl)c(N3CCC(=O)NC3=O)c2)CC1)C[C@H]1CC[C@H](n2cc(NC(=O)c3cnn4ccc(N5CC6CCC(C5)O6)nc34)c(C(F)F)n2)CC1" .
Out: 97.6

###

Provide the reported DC50 of each item.
- tested.system: IRAK4 protein in normal human PBMCs (Homo sapiens, UniProt Q9NWZ3)
- Construct: host or cells: normal human PBMCs
- assay.summary: Degradation of IRAK4 protein in normal human PBMCs (AlphaLISA)
- Type: cell-based
- protocol.conditions: 24 h incubation
API: value field is a number in nM; no unit string.

In: Name the recorded DC50 for "O=C1CCN(c2cc(C(=O)N3CCC4(CCC(CN5CCC(n6cc(NC(=O)c7cnn8ccc(N9C[C@H]%10C[C@@H]9CO%10)nc78)c(C(F)F)n6)CC5)CC4)CC3)ccc2Cl)C(=O)N1" .
Out: 1.28

In: Name the recorded DC50 for "CN(CCC1CCN(C(=O)c2ccc(Cl)c(N3CCC(=O)NC3=O)c2)CC1)C[C@H]1CC[C@H](n2cc(NC(=O)c3cnn4ccc(N5CCC[C@H](N)C5)nc34)c(C(F)F)n2)CC1" .
Out: 0.77

In: Name the recorded DC50 for "CN(CCC1CCN(C(=O)c2ccc(Cl)c(N3CCC(=O)NC3=O)c2)CC1)C[C@H]1CC[C@H](n2cc(NC(=O)c3cnn4ccc(N5CC6CCC(C5)O6)nc34)c(C(F)F)n2)CC1" .
Out: 0.67

In: Name the recorded DC50 for "O=C1CCN(c2cc(C(=O)N3CCC4(CCN(C[C@H]5CC[C@H](n6cc(NC(=O)c7cnn8ccc(N9C[C@H]%10C[C@@H]9CO%10)nc78)c(C(F)F)n6)CC5)CC4)CC3)ccc2Cl)C(=O)N1" .
Out: 1.56

In: Name the recorded DC50 for "Cc1ccc(C(=O)N2CCC3(CCC(CN4CCC(n5cc(NC(=O)c6cnn7ccc(N8CC9(COC9)C8)nc67)c(C(F)F)n5)CC4)CC3)CC2)cc1N1CCC(=O)NC1=O" .
Out: 0.48

In: Name the recorded DC50 for "O=C1CCN(c2cc(C(=O)N3CCC4(CCC(CN5CCC(n6cc(NC(=O)c7cnn8ccc(N9CCOCC9)nc78)c(C(F)F)n6)CC5)CC4)CC3)ccc2Cl)C(=O)N1" .
Out: 0.39

In: Name the recorded DC50 for "O=C1CCN(c2cc(C(=O)N3CCC4(CCC(CCN5CCC(n6cc(NC(=O)c7cnn8ccc(N9CCOCC9)nc78)c(C(F)F)n6)CC5)CC4)CC3)ccc2Cl)C(=O)N1" .
Out: 0.72

In: Name the recorded DC50 for "COc1ccc(C(=O)N2CCC(CCN(C)C[C@H]3CC[C@H](n4cc(NC(=O)c5cnn6ccc(N7CCC[C@H](N)C7)nc56)c(C(F)F)n4)CC3)CC2)cc1N1CCC(=O)NC1=O" .
Out: 1.49

In: Name the recorded DC50 for "COc1ccc(C(=O)N2CCC(CCN(C)C[C@H]3CC[C@H](n4cc(NC(=O)c5cnn6ccc(N7CC8(COC8)C7)nc56)c(C(F)F)n4)CC3)CC2)cc1N1CCC(=O)NC1=O" .
Out: 1.11

In: Name the recorded DC50 for "N[C@H]1CCCN(c2ccn3ncc(C(=O)Nc4cn(C5CCN(CC6CCC7(CC6)CCN(C(=O)c6ccc(Cl)c(N8CCC(=O)NC8=O)c6)CC7)CC5)nc4C(F)F)c3n2)C1" .
Out: 1

In: Name the recorded DC50 for "CN(CCC1CCN(C(=O)c2ccc(Cl)c(N3CCC(=O)NC3=O)c2)CC1)C[C@H]1CC[C@H](n2cc(NC(=O)c3cnn4ccc(N5CCOCC5)nc34)c(C(F)F)n2)CC1" .
Out: 0.39

In: Name the recorded DC50 for "COc1ccc(C(=O)N2CCC(CCN(C)C[C@H]3CC[C@H](n4cc(NC(=O)c5cnn6ccc(N7CCC[C@H](O)C7)nc56)c(C(F)F)n4)CC3)CC2)cc1N1CCC(=O)NC1=O" .
Out: 0.27

In: Name the recorded DC50 for "Cc1ccc(C(=O)N2CCC3(CCN(C[C@H]4CC[C@H](n5cc(NC(=O)c6cnn7ccc(N8CCC[C@H](O)C8)nc67)c(C(F)F)n5)CC4)CC3)CC2)cc1N1CCC(=O)NC1=O" .
Out: 0.28

In: Name the recorded DC50 for "Cc1ccc(C(=O)N2CCC3(CCC(CN4CCC(n5cc(NC(=O)c6cnn7ccc(N8CCC[C@H](N)C8)nc67)c(C(F)F)n5)CC4)CC3)CC2)cc1N1CCC(=O)NC1=O" .
Out: 2.17

In: Name the recorded DC50 for "O=C1CCN(c2cc(C(=O)N3CCC4(CCC(CN5CCC(n6cc(NC(=O)c7cnn8ccc(N9CCC[C@H](O)C9)nc78)c(C(F)F)n6)CC5)CC4)CC3)ccc2Cl)C(=O)N1" .
Out: 0.35

In: Name the recorded DC50 for "COc1cc2nn([C@H]3CC[C@](O)(COCCC4CCN(C(=O)c5ccc(Cl)c(N6CCC(=O)NC6=O)c5)CC4)CC3)cc2cc1NC(=O)c1cccc(C(F)(F)F)n1" .
Out: 1.32

In: Name the recorded DC50 for "COc1ccc(C(=O)N2CCC3(CCC(CCN4CCC(n5cc(NC(=O)c6cnn7ccc(N8CCOCC8)nc67)c(C(F)F)n5)CC4)CC3)CC2)cc1N1CCC(=O)NC1=O" .
Out: 0.7

In: Name the recorded DC50 for "Cc1ccc(C(=O)N2CCC3(CCC(CN4CCC(n5cc(NC(=O)c6cnn7ccc(N8CCS(=O)(=O)CC8)nc67)c(C(F)F)n5)CC4)CC3)CC2)cc1N1CCC(=O)NC1=O" .
Out: 0.53

In: Name the recorded DC50 for "COc1cc2nn([C@H]3CC[C@@](COCCC4CCN(C(=O)c5ccc(Cl)c(N6CCC(=O)NC6=O)c5)CC4)(OC)CC3)cc2cc1NC(=O)c1cccc(C(F)(F)F)n1" .
Out: 2.03

In: Name the recorded DC50 for "COc1cc2nn([C@H]3CC[C@](O)(COCC4CCN(C(=O)c5ccc(Cl)c(N6CCC(=O)NC6=O)c5)CC4)CC3)cc2cc1NC(=O)c1cccc(C(F)(F)F)n1" .
Out: 1.58

Ref: patent US20260174878A1
